- Tested on: Retinaldehyde dehydrogenase 3 (Homo sapiens)
- Experimental protocol: qHTS for Inhibitors of the Aldehyde Dehydrogenase Family (ALDH1A3) Confirmatory screens (AID 2061311); note: nearly all actives have a fitted effect of over 60% in size
- Condition context: ALDH inhibition qHTS; series mostly up to 46 µM
Records with an inconclusive call do not appear. Calls of active or inactive are those of the source. Calls come from the whole dose curve; as a rule, active = well fitted inhibition curve with a large enough effect; inconclusive = small, poorly fitted or top-dose-only effect; inactive = no such curve, though single readings can be large or run the other way.
The categories you may choose from are active, inactive

Compound	Assigned category
N[C@H]1Cc2ccccc2N(O)C1=O	inactive
O=c1ccc2ccc(O)c(O)c2o1	active
CC(C)NCC(O)c1ccc(O)c(O)c1 (stereo unspecified)	inactive
N[C@H](C(=O)O)[C@H](O)C(=O)O	inactive
CC(C)(C)OC(=O)N1CCC(c2ccc(NCc3ccc(-c4ccc(C#N)cc4)o3)cc2)CC1	active
O=C(CCCCCCNC(=O)c1cnc(N(c2ccccc2)c2ccccc2)nc1)NO	inactive
CN(C)CCCCCCNC(=O)c1cccc(-c2cc(O)c3ncccc3c2)c1	active
O=c1[nH]c2cccc(N3CCN(Cc4ccc(-c5ccccc5)cc4)CC3)c2o1	inactive

In: So what was the verdict on CCCCC1CCN(CCCN2C(=O)CCc3ccccc32)CC1 in this test?
Out: inactive

* * *

- Tested on: Retinaldehyde dehydrogenase 3 (Homo sapiens) (UniProt P47895)
- Experimental protocol: qHTS for Inhibitors of the Aldehyde Dehydrogenase Family (ALDH1A3) Confirmatory screens (AID 2061311); note: nearly all actives have a fitted effect of over 60% in size
- Condition context: ALDH inhibition qHTS; series mostly up to 46 µM
Records with an inconclusive call do not appear. The source made the active and inactive calls. Calls come from the whole dose curve; as a rule, active = well fitted inhibition curve with a large enough effect; inconclusive = small, poorly fitted or top-dose-only effect; inactive = no such curve, though single readings can be large or run the other way.
The categories you may choose from are active, inactive

Consider the following illustrative entries.
Compound	Assigned category
CCN1CCN(C(=O)N[C@@H](C(=O)N[C@@H]2C(=O)N3[C@@H]2SC(C)(C)[C@@H]3C(=O)O)c2ccccc2)C(=O)C1=O	inactive
CN1CCN(CC(=O)N2c3ccccc3C(=O)Nc3cccnc32)CC1	inactive
CCN(Cc1cc(Nc2nc(C)cn3c(-c4cn[nH]c4)cnc23)sn1)C(C)(C)CO	active
O=C(Nc1ccc(F)c(C(F)(F)F)c1)Nc1nnc(C2CCCCC2)s1	inactive
Cc1ccccc1C#Cc1ccc(CCC(=O)O)cc1	active

In: So what was the verdict on O=C(NC1CCCc2c1cnn2-c1ccc(F)cc1F)c1ccncc1 (stereo unspecified) in this test?
Out: inactive

In: So what was the verdict on O=C(CN1C(=O)CC(c2ccco2)Sc2ccccc21)Nc1ccccc1F (stereo unspecified) in this test?
Out: inactive

In: So what was the verdict on COc1ccc(-c2nc3ccccc3s2)cc1 in this test?
Out: active

* * *

- Tested on: Cellular tumor antigen p53 (Homo sapiens)
- Experimental protocol: Primary qHTS for small molecule compounds that upregulate eGFP-tagged delta133p53alpha (in N-terminal) cells. (AID 2060322);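 note: cells pre-induced with doxycycline then dosed without doxycycline; 0% = DMSO vehicle and 100% = reference activator; nearly all actives have a fitted effect of over 75% in size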
- Condition context: NCI-H358 eGFP-delta133p53alpha fluorescence, 24 h; active compounds read high
Results filed as inconclusive are left out. The source made the active and inactive calls. Calls follow the shape of the dose curve; as a rule, active = well fitted activation curve with a large enough effect; inconclusive = small, poorly fitted or top-dose-only effect; inactive = no such curve, though single readings can be large or run the other way.
The entries below are paired with their reported activation.

Use the examples below as a reference point.
Compound	activation
COc1ccc(CCC(=O)c2c(O)cc(O[C@@H]3O[C@H](CO)[C@@H](O)[C@H](O)[C@@H]3O[C@@H]3O[C@@H](C)[C@H](O)[C@@H](O)[C@@H]3O)cc2O)cc1O	22.6% (inactive)
O=C(O)Cc1ccccc1Oc1ccc(Cl)cc1Cl	-3.35% (inactive)

In: Quick one: activation for Cc1cccc(N(C)C(=S)Oc2ccc3c(c2)C2CCC3C2)c1 (stereo not drawn) ?
Out: -15.1% (inactive)

In: Quick one: activation for COc1ccc(-c2c(C)nn3c(NCCN4CCOCC4)cc(C)nc23)cc1OC ?
Out: 7% (inactive)

In: Quick one: activation for COc1cc2c(cc1O)CC(O)(CO)C(CO)C2c1ccc(OC2OC(CO)C(O)C(O)C2O)c(OC)c1 (stereo not drawn) ?
Out: -31.3% (inactive)

In: Quick one: activation for O=C(Nc1ccc(Cl)cc1)C1CCCN(C(=O)c2cccc(-c3ccco3)c2)C1 (stereo not drawn) ?
Out: -4.77% (inactive)

In: Quick one: activation for CC(=O)OCC1=C[C@@H]2OC(=O)C3=CO[C@@H](O[C@@H]4O[C@H](CO)[C@@H](O)[C@H](O)[C@H]4O)[C@H]1[C@@H]32 ?
Out: -16.8% (inactive)
